target: T1, Anti-PSMA Fab (SEQ ID NOs: 19, 20); experiment: phage ELISA; PSMA Fab on plate pre-incubated with PSMA antigen as competitor, anti-M13 HRP detection;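 also: crude clonal phage supernatants added to Fab-coated wells still holding PSMA antigen in blocking buffer, with bound phage as read-out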
T1 construct: Biotinylated PSMA Fab captured on neutravidin coated plates in the phage ELISA; also called 006 PSMA Fab
Measured Phage binding ELISA, Anti-PSMA Fab signal in the presence of PSMA, listed per entry.
value kind: Phage binding ELISA, Anti-PSMA Fab signal in the presence of PSMA

binder	endpoint value
EMKWCIPDWMCAAG (Clonal phage of the Peptide-180 library, tested as crude supernatant; not shown: fused to the pIII filament of the bacteriophage) [Phage-2161]	0.0716
EGRWCIPSWMCVGV (Clonal phage of the Peptide-180 library, tested as crude supernatant; not shown: fused to the pIII filament of the bacteriophage) [Phage-2155]	0.0956
VEKWCIPQWMCVSQ (Clonal phage of the Peptide-180 library, tested as crude supernatant; not shown: fused to the pIII filament of the bacteriophage) [Phage-2147]	0.0673
IMKLCMPPWMCAAM (Clonal phage of the Peptide-180 library, tested as crude supernatant; not shown: fused to the pIII filament of the bacteriophage) [Phage-2148]	0.0907
ETKWCFPPWMCAGS (Clonal phage of the Peptide-180 library, tested as crude supernatant; not shown: fused to the pIII filament of the bacteriophage) [Phage-2159]	0.337
VSKWCTPEWMCTGF (Clonal phage of the Peptide-180 library, tested as crude supernatant; not shown: fused to the pIII filament of the bacteriophage) [Phage-2156]	0.0826
EHKWCIPDWMCMVA (Clonal phage of the Peptide-180 library, tested as crude supernatant; not shown: fused to the pIII filament of the bacteriophage) [Phage-2153]	0.0728
FERWCIPAWMCQSD (Clonal phage of the Peptide-180 library, tested as crude supernatant; not shown: fused to the pIII filament of the bacteriophage) [Phage-2158]	0.066
AMHWCIPKWMCETS (Clonal phage of the Peptide-180 library, tested as crude supernatant; not shown: fused to the pIII filament of the bacteriophage) [Phage-2160]	0.141
ITNWCKPAWMCEVS (Clonal phage of the Peptide-180 library, tested as crude supernatant; not shown: fused to the pIII filament of the bacteriophage) [Phage-2149]	0.114
LDKWCTPEWMCWGI (Clonal phage of the Peptide-180 library, tested as crude supernatant; not shown: fused to the pIII filament of the bacteriophage) [Phage-2154]	0.0536
YEIRCIPPWMCAFD (Clonal phage of the Peptide-180 library, tested as crude supernatant; not shown: fused to the pIII filament of the bacteriophage) [Phage-2151]	0.117
VHIWCIPQWMCMDR (Clonal phage of the Peptide-180 library, tested as crude supernatant; not shown: fused to the pIII filament of the bacteriophage) [Phage-2150]	0.202
DVIRCTPDWMCTGF (Clonal phage of the Peptide-180 library, tested as crude supernatant; not shown: fused to the pIII filament of the bacteriophage) [Phage-2157]	0.064
IEKWCTPAWMCYGI (Clonal phage of the Peptide-180 library, tested as crude supernatant; not shown: fused to the pIII filament of the bacteriophage) [Phage-2152]	0.077
